- Test system: Monoclonal mouse 5α-PtG antibody
- Assay notes: Cross-reactivity of monoclonal 5α-PtG antibody (enzyme immunoassay)
- Assay type: binding
- Assay conditions: monoclonal mouse 5α-PtG antibody raised against 5α-PtG-KLH
Readout type: Cross-reactivities for the antibody

1) C[C@@H](O)[C@H]1CC[C@H]2[C@@H]3C[C@H](O[C@@H]4O[C@H](C(=O)O)[C@@H](O)[C@H](O)[C@H]4O)[C@H]4C[C@@H](O)CC[C@]4(C)[C@H]3CC[C@]12C	100%
2) CC(=O)[C@H]1CC[C@H]2[C@@H]3C[C@H](O)[C@H]4C[C@@H](O)CC[C@]4(C)[C@H]3CC[C@]12C	0.5%
3) CC(O)C1(O)CCC2C3CCC4CC(O)CCC4(C)C3CCC21C (centres unmarked)	No cross-reactivities
4) CC(=O)[C@H]1CC[C@H]2[C@@H]3CCC4=CC(=O)CC[C@]4(C)[C@H]3CC[C@]12C	No cross-reactivities
5) C[C@H](O)[C@H]1CC[C@H]2[C@@H]3CC[C@@H]4C[C@H](O)CC[C@]4(C)[C@H]3CC[C@]12C	No cross-reactivities
6) C[C@H](O)[C@H]1CC[C@H]2[C@@H]3C[C@H](O)[C@H]4C[C@@H](O)CC[C@]4(C)[C@H]3CC[C@]12C	No cross-reactivities
7) C[C@H](O)[C@@]1(O)CC[C@H]2[C@@H]3CC[C@@H]4C[C@H](O)CC[C@]4(C)[C@H]3CC[C@@]21C	No cross-reactivities
8) C[C@@H](O)[C@H]1CC[C@H]2[C@@H]3CC[C@@H]4C[C@H](O)CC[C@]4(C)[C@H]3CC[C@]12C	0.5%
9) C[C@@H](O)[C@H]1CC[C@H]2[C@@H]3C[C@H](O)[C@H]4C[C@@H](O)CC[C@]4(C)[C@H]3CC[C@]12C	25.4%
10) C[C@@H](O)[C@@]1(O)CCC2C3CC[C@H]4C[C@@H](O)CC[C@]4(C)C3CC[C@@]21C (some centres unmarked)	No cross-reactivities
11) C[C@H](O)[C@H]1CC[C@H]2[C@@H]3CC[C@@H]4C[C@H](O[C@@H]5O[C@H](C(=O)O)[C@@H](O)[C@H](O)[C@H]5O)CC[C@]4(C)[C@H]3CC[C@]12C [PdG, 5β-pregnane-3α,20α-diol-3-glucuronide]	No cross-reactivities
